Data origin, for the record: paper PMC2756588

Target: T1, Abp1, P15891
T1 sequence (P15891 535-592, looked up): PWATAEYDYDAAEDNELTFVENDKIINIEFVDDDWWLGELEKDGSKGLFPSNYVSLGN
Test: SPOT array
Conditions: median of control spots 935
Binning of SPOT intensity into classes: class A (below 30), class B (30 to below 70), class C (70 or more)

NENKKLPPAPTVFGL
class A

Using the reported SPOT intensity, which band applies to HGKRRAPLLLAKLDV ?
class C

Could you tell me which band IAPIPMPKPNPTHIS belongs to?
class B

Could you place KLSRGRYGLPLSSRP in its proper category? Many thanks.
class A

Class label required: RKQRSIPLSPIVPES
class B
